Value source: patent US11512090B2

- Study target: human M1 receptor (Homo sapiens, UniProt P11229)
- Sequence (P11229 whole entry): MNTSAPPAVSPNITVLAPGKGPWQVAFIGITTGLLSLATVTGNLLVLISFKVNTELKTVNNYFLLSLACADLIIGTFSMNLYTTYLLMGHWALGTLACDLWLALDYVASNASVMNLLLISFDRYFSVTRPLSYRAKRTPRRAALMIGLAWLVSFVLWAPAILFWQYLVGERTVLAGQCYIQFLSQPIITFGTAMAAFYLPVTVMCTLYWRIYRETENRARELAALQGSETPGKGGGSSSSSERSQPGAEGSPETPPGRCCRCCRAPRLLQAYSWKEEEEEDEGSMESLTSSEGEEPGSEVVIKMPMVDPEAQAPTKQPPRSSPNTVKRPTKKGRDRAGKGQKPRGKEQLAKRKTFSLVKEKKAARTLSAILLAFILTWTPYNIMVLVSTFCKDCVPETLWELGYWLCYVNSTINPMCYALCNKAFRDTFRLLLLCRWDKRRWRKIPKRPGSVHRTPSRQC
- Experimental protocol: In vitro functional assay of muscarinic acetylcholine receptor activity (aequorin calcium flux, antagonist mode vs EC80 acetylcholine), M1
- Assay type: cell-based
pIC50: −log10 of the molar value.
Reported property: pIC50

[[record]]
compound = "N#Cc1ccc(N2C3CCC2CN(C(=O)CCS(=O)(=O)c2cccc4ncsc24)C3)cn1 [Example 146]"
measured_value = "> 7.00"

[[record]]
compound = "O=C(CCNCc1cccc2nccn12)N1CC2CCC(C1)N2c1ccncc1F [Example 14]"
measured_value = "6.00 to 7.00"

[[record]]
compound = "O=C(CCNCc1c(F)ccc2nccn12)N1CC2CCC(C1)N2c1ccncc1F [Example 139]"
measured_value = "6.00 to 7.00"

[[record]]
compound = "N#Cc1ccc(N2C3CCC2CN(C(=O)CCOCc2cccc4ncnn24)C3)nc1 [Example 39]"
measured_value = "> 7.00"


Ask | Give the value of pIC50 reported for the following: Cc1ccc2ncccc2c1COCCC(=O)N1CC2CCC(C1)N2c1ccc(C#N)cn1 [Example 177]
Reply | > 7.00
